- protocolNotes: Apparent permeability of the compound in human Caco-2 cells across basolateral to apical side
- Type: ADME, cell-based
Where a SMILES comes first, the peptide text is derived from it. Bridges are numbered along the chain shown (N, C = ends).
quantity: Papp B→A (×10⁻⁶ cm/s)
Record the value in ×10⁻⁶ cm/s, omitting the unit from your answer.

Recorded Papp B→A for CC(C)C[C@H](NC(=O)[C@@H]1CSSC[C@H](NC(=O)[C@@H](N)Cc2ccc(O)cc2)C(=O)N[C@@H](Cc2ccc(O)cc2)C(=O)N2CCC[C@H]2C(=O)N[C@@H](C(C)C)C(=O)N2CCC[C@H]2C(=O)N[C@@H](Cc2ccc(O)cc2)C(=O)N2CCC[C@H]2C(=O)N2CCC[C@H]2C(=O)N[C@@H](Cc2ccccc2)C(=O)N[C@@H](Cc2ccccc2)C(=O)N[C@@H](CC(C)C)C(=O)N1)C(=O)N[C@@H](Cc1ccccc1)C(=O)N[C@@H](CC(N)=O)C(=O)O (H-YCYPVPYPPFFLCLFN-OH; disulfide 2-13) , please?
10.8

====

- protocolNotes: Lipophilicity, log D of compound at pH 7.4 by shake-flask method
- Type: physicochemical
- measurementContext: buffer
Where a SMILES comes first, the peptide text is derived from it. Bridges are numbered along the chain shown (N, C = ends).
quantity: logD

# lookup: logD of CC(C)C[C@H](NC(=O)[C@@H]1CSSC[C@H](NC(=O)[C@@H](N)Cc2ccc(O)cc2)C(=O)N[C@@H](Cc2ccc(O)cc2)C(=O)N2CCC[C@H]2C(=O)N[C@@H](C(C)C)C(=O)N2CCC[C@H]2C(=O)N[C@@H](Cc2ccc(O)cc2)C(=O)N2CCC[C@H]2C(=O)N2CCC[C@H]2C(=O)N[C@@H](Cc2ccccc2)C(=O)N[C@@H](Cc2ccccc2)C(=O)N[C@@H](CC(C)C)C(=O)N1)C(=O)N[C@@H](Cc1ccccc1)C(=O)N[C@@H](CC(N)=O)C(=O)O (H-YCYPVPYPPFFLCLFN-OH; disulfide 2-13)
2.94

====

- protocolNotes: Stability in rat liver microsomes assessed as half life
- Type: ADME, Microsome
Where a SMILES comes first, the peptide text is derived from it. Bridges are numbered along the chain shown (N, C = ends).
quantity: half-life
Could you give the number and then its unit, please?

Which value of half-life has been reported for CC(C)C[C@H](NC(=O)[C@@H]1CSSC[C@H](NC(=O)[C@@H](N)Cc2ccc(O)cc2)C(=O)N[C@@H](Cc2ccc(O)cc2)C(=O)N2CCC[C@H]2C(=O)N[C@@H](C(C)C)C(=O)N2CCC[C@H]2C(=O)N[C@@H](Cc2ccc(O)cc2)C(=O)N2CCC[C@H]2C(=O)N2CCC[C@H]2C(=O)N[C@@H](Cc2ccccc2)C(=O)N[C@@H](Cc2ccccc2)C(=O)N[C@@H](CC(C)C)C(=O)N1)C(=O)N[C@@H](Cc1ccccc1)C(=O)N[C@@H](CC(N)=O)C(=O)O (H-YCYPVPYPPFFLCLFN-OH; disulfide 2-13) in the records?
18.3 h

====

- protocolNotes: Stability of the compound in stimulated gastric fluid assessed as half life at pH 1.6
- Assay type: ADME
- measurementContext: simulated gastric fluid
Where a SMILES comes first, the peptide text is derived from it. Bridges are numbered along the chain shown (N, C = ends).
quantity: half-life (h)
Report the value in h with no unit label.

Please give the measured half-life for this compound: CC(C)C[C@H](NC(=O)[C@@H]1CSSC[C@H](NC(=O)[C@@H](N)Cc2ccc(O)cc2)C(=O)N[C@@H](Cc2ccc(O)cc2)C(=O)N2CCC[C@H]2C(=O)N[C@@H](C(C)C)C(=O)N2CCC[C@H]2C(=O)N[C@@H](Cc2ccc(O)cc2)C(=O)N2CCC[C@H]2C(=O)N2CCC[C@H]2C(=O)N[C@@H](Cc2ccccc2)C(=O)N[C@@H](Cc2ccccc2)C(=O)N[C@@H](CC(C)C)C(=O)N1)C(=O)N[C@@H](Cc1ccccc1)C(=O)N[C@@H](CC(N)=O)C(=O)O (H-YCYPVPYPPFFLCLFN-OH; disulfide 2-13)
6.5
